Molecular target: T1, human LAG-3 (full length, on the cell surface) (human, UniProt P18627 23-525)
T1 construct: Full-length human LAG-3 expressed on cells; also called HEK293-hLAG-3; HEK293 cells transfected with LAG-3 gene
T1 sequence: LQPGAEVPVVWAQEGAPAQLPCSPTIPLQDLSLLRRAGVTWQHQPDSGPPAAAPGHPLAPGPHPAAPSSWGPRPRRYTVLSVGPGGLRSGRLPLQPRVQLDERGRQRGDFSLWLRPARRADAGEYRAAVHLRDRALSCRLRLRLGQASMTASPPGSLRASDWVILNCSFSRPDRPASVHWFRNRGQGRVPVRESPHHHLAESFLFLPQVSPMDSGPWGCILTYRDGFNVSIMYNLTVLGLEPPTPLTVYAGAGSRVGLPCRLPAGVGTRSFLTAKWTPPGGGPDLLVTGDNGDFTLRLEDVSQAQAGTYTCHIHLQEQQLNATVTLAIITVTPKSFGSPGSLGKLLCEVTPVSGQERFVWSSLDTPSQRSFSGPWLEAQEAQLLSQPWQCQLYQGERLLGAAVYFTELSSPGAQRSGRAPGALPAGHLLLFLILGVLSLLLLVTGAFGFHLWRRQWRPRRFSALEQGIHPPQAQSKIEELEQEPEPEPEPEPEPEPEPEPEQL
Test: FACS, HEK293-hLAG-3; 0.000 nM
measure: Mean fluorescence intensity (MFI)
Field format: number, assumed MFI, no unit text.

What does the record list as Mean fluorescence intensity for 105F1E10 (mouse antibody purified from hybridoma) (antibody, V domains shown, also called mAb009-105F1E10) VH: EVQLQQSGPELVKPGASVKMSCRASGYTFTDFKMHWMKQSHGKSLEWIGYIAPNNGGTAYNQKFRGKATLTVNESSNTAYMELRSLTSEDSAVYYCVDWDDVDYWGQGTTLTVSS VL: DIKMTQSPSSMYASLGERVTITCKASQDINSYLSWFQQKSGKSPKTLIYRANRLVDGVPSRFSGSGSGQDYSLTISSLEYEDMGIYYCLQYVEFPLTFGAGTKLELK ?
3.7
